- System: Streptococcus agalactiae
- procedure summary: Antimicrobial activity against Streptococcus agalactiae by broth microdilution method
- Format: functional
reported property: MIC90 (µg/mL)
Give bare numbers, in µg/mL.

Example molecules with recorded MIC90:
CC(=O)NC[C@H]1CN(c2ccc(N3CCOCC3)c(F)c2)C(=O)O1: 2
CN[C@H](CC(C)C)C(=O)N[C@H]1C(=O)N[C@@H](CC(N)=O)C(=O)N[C@H]2C(=O)N[C@H]3C(=O)N[C@H](C(=O)N[C@H](C(=O)O)c4cc(O)cc(O)c4-c4cc3ccc4O)[C@H](O)c3ccc(c(Cl)c3)Oc3cc2cc(c3O[C@@H]2O[C@H](CO)[C@@H](O)[C@H](O)[C@H]2O[C@H]2C[C@](C)(N)[C@H](O)[C@H](C)O2)Oc2ccc(cc2Cl)[C@H]1O: 1
c1cc2cc(-c3ccc(-c4cc5ccc(C6=NCCN6)cc5[nH]4)cc3)[nH]c2cc1C1=NCCN1: 0.03
C[C@@H](O)[C@H]1C(=O)N2C(C(=O)O)=C(SCCNC=N)C[C@H]12 [IMIPENEM ANHYDROUS]: 0.06
c1cc2cc(-c3ccc(-c4cc5ccc(C6=NCCCN6)cc5[nH]4)cc3)[nH]c2cc1C1=NCCCN1: 0.03

Pending molecule:
Request: What reported MIC90 corresponds to CCCCCCCCCC(=O)N[C@@H](Cc1c[nH]c2ccccc12)C(=O)N[C@H](CC(N)=O)C(=O)N[C@@H](CC(=O)O)C(=O)N[C@@H]1C(=O)NCC(=O)N[C@@H](CCCN)C(=O)N[C@@H](CC(=O)O)C(=O)N[C@H](C)C(=O)N[C@@H](CC(=O)O)C(=O)NCC(=O)N[C@H](CO)C(=O)N[C@@H]([C@H](C)CC(=O)O)C(=O)N[C@@H](CC(=O)c2ccccc2N)C(=O)O[C@@H]1C on Streptococcus agalactiae?
Result: 2

----------
Provide the recorded MIC50 for the entries that follow.
- Tested on: Enterococcus faecalis
- procedure summary: Antimicrobial activity against vancomycin-susceptible Enterococcus faecalis by broth microdilution method
- Assay type: functional
Numbers only, in µg/mL.

CN[C@H](CC(C)C)C(=O)N[C@H]1C(=O)N[C@@H](CC(N)=O)C(=O)N[C@H]2C(=O)N[C@H]3C(=O)N[C@H](C(=O)N[C@H](C(=O)O)c4cc(O)cc(O)c4-c4cc3ccc4O)[C@H](O)c3ccc(c(Cl)c3)Oc3cc2cc(c3O[C@@H]2O[C@H](CO)[C@@H](O)[C@H](O)[C@H]2O[C@H]2C[C@](C)(N)[C@H](O)[C@H](C)O2)Oc2ccc(cc2Cl)[C@H]1O: 1

Request: Reported MIC50 for C[C@@H](O)[C@H]1C(=O)N2C(C(=O)O)=C(SCCNC=N)C[C@H]12 [IMIPENEM ANHYDROUS] : what is it?
Result: 1

----------
- Test system: Haemophilus influenzae
- procedure summary: Antimicrobial activity against Haemophilus influenzae by broth microdilution method
- Type: functional
reported property: MIC50 (µg/mL)
Give bare numbers, in µg/mL.

Hey, can you go through the list below and give me MIC50 for every item?
1. C[C@H]1COc2c(N3CCN(C)CC3)c(F)cc3c(=O)c(C(=O)O)cn1c23.C[C@H]1COc2c(N3CCN(C)CC3)c(F)cc3c(=O)c(C(=O)O)cn1c23.O [LEVOFLOXACIN]
2. c1cc2cc(-c3ccc(-c4cc5ccc(C6=NCCN6)cc5[nH]4)cc3)[nH]c2cc1C1=NCCN1
3. CO/N=C(\C(=O)N[C@@H]1C(=O)N2C(C(=O)O)=C(COC(C)=O)CS[C@H]12)c1csc(N)n1 [CEFOTAXIME]
4. c1cc2cc(-c3ccc(-c4cc5ccc(C6=NCCCN6)cc5[nH]4)cc3)[nH]c2cc1C1=NCCCN1

Result:
[0.015, 4, 1, 1]
